All figures here come from patent US20190031599A1.

I'd appreciate it if you could supply pEC50 values for the items below.
# STUDY TARGET: human mGluR7 (Homo sapiens)
# Sequence (Q14831 35-915): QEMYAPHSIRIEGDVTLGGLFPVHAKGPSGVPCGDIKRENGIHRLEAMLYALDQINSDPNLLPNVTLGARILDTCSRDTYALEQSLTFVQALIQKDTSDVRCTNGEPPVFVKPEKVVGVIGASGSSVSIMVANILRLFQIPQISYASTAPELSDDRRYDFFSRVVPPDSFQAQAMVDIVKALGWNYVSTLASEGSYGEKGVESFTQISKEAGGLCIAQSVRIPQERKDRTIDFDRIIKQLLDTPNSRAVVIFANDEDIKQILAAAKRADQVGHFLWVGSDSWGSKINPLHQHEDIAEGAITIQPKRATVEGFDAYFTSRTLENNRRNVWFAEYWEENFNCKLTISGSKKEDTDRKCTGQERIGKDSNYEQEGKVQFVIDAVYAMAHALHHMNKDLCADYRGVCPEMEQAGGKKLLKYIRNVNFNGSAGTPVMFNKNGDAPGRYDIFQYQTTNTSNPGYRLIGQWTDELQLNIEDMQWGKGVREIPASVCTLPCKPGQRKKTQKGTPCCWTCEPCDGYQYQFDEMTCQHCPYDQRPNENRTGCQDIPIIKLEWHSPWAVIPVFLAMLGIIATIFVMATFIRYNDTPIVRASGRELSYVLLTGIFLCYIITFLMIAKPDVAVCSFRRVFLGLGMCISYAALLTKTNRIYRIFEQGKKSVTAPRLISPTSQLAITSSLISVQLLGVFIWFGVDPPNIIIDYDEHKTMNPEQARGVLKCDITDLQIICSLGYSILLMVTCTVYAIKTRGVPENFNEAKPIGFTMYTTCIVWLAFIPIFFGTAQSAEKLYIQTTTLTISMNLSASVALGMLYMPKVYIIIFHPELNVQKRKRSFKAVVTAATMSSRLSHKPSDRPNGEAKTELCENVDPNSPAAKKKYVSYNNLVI
# ASSAY NOTES: mGluR7 assay: CRE-directed luciferase reporter gene assay, reduction of forskolin stimulated cAMP production
# CONDITION LABEL: stable CHO cell line expressing the CRE-luc reporter and human mGluR7 genes; decrease of forskolin stimulated luminescence; 10-point concentration-response, duplicate wells
Structures can show the parent of a compound that is named as a salt.
Lab note: report pEC50 as minus log10 of the concentration in molar units, number only.

Exercise: Which pEC50 is listed for CC(C)(C)OC(=O)N[C@H]1c2ccccc2C[C@@H]1NC(=O)C(c1ccc(F)cc1F)n1ccccc1=O (single isomer, unassigned) [Example 49] ?
Key: 6.88

Exercise: Which pEC50 is listed for COC1c2ccccc2CC1NC(=O)C(c1ccc(F)cc1)N1CC(F)C1 (single isomer, unassigned) [Example 143] ?
Key: 5.90

Exercise: Which pEC50 is listed for CC(C(=O)N[C@H]1Cc2ccccc2[C@@H]1N)c1ccc(C(F)(F)F)cc1 (stereo partly drawn) [Example 58, hydrochloride] ?
Key: 5.75

Exercise: Which pEC50 is listed for COC1c2ccccc2CC1NC(=O)C(c1ccc(F)cc1)N1CC(F)C1 (single isomer, unassigned) [Example 142] ?
Key: 7.21

Exercise: Which pEC50 is listed for COC1c2ccccc2CC1NC(=O)C(c1ccc(F)cc1F)n1ncccc1=O (single isomer, unassigned) [Example 127] ?
Key: 7.09

Exercise: Which pEC50 is listed for COC1c2ccccc2CC1NC(=O)C(c1ccc(F)cc1F)N1CC(F)C1 (single isomer, unassigned) [Example 136] ?
Key: 5.70

###

# STUDY TARGET: human mGluR7 (Homo sapiens)
# ASSAY NOTES: mGluR7 assay: CRE-directed luciferase reporter gene assay, reduction of forskolin stimulated cAMP production
# CONDITION LABEL: stable CHO cell line expressing the CRE-luc reporter and human mGluR7 genes; decrease of forskolin stimulated luminescence; 10-point concentration-response, duplicate wells
VALUE TYPE: EC50 (nM)
// units = nM; emit number, no label

Exercise: Which EC50 is listed for CC(C(=O)N[C@H]1Cc2ccccc2[C@@H]1N)c1ccc(Cl)cc1 (single isomer, unassigned) [Example 69] ?
Key: 47

Exercise: Which EC50 is listed for `CC(C)(C)OC(=O)N[C@H]1c2ccccc2C[C@@H]1NC(=O)C1(c2ccccc2)COC1` ?
Key: 53

Exercise: Which EC50 is listed for CC(F)(C(=O)N[C@H]1Cc2ccccc2[C@@H]1N)c1ccc(F)cc1 (single isomer, unassigned) [Example 76] ?
Key: 288
